Cited source: PubChem BioAssay AID1963842

test system: 677734-321-R-J1-PDC complex spheroid viability; assay: Anticancer human tumor 677734-321-R-J1-PDC patient-derived soft tissue sarcoma cell line growth inhibition [POLQ]; conditions: second compound 0.1 µM; first compound 1 µM; active = viability on the fitted dose curve at most 10% of control; inactive = the rest
Parameter call: string, one of True (active), False (inactive)

Compound	Cat
COc1cccc2c1C(=O)c1c(O)c3c(c(O)c1C2=O)CC(O)(C(=O)CO)CC3OC1CC(N)C(O)C(C)O1 (stereo not drawn) + COC1C(OC(N)=O)C(O)C(Oc2ccc3c(O)c(NC(=O)c4ccc(O)c(CC=C(C)C)c4)c(=O)oc3c2C)OC1(C)C	True
CCc1cc2c(N3CCc4c(cc(Cn5ccnc5)cc4-c4cn(C)nc4C(F)(F)F)C3=O)ccnc2c(OC)n1 + Cc1cccc(N(C)C(=O)C2C(O)CCN2c2nc(C)cc(C(F)(F)F)c2C#N)c1	False

Consider now this further compound.
Task: Could you please tell me the result logged for CCc1cc2c(N3CCc4c(cc(Cn5ccnc5)cc4-c4cn(C)nc4C(F)(F)F)C3=O)cc(C)nc2c(OC)n1 + Nc1ccc(C#CCN(C(=O)Cc2ncc(C(F)(F)F)cc2C(F)(F)F)c2ccc(F)cc2)nn1 in this assay?
Output: False

====

test system: 677734-321-R-J1-PDC complex spheroid viability; assay: Anticancer human tumor 677734-321-R-J1-PDC cell line growth inhibition [POLQ]; conditions: second compound 0.0316 µM; first compound 0.316 µM; stronger effect = lower value;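 also: spheroids exposed to compounds for one week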;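 as to viability, T/C: 100% = vehicle DMSO treated spheroids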
Quick reference: viability, T/C of the listed items.
Write the value in % as a bare number.

Compound	Unit abbrev	viability, T/C
CNCc1ccc(-c2[nH]c3cc(F)cc4c3c2CCNC4=O)cc1 + COC1C(OC(N)=O)C(O)C(Oc2ccc3c(O)c(NC(=O)c4ccc(O)c(CC=C(C)C)c4)c(=O)oc3c2C)OC1(C)C	%	96.6
C#Cc1c(F)ccc2cc(O)cc(-c3ncc4c(N5CC6CCC(C5)N6)nc(OCC56CCCN5CC(F)C6)nc4c3F)c12 (stereo not given) + COC1C(OC(N)=O)C(O)C(Oc2ccc3c(O)c(NC(=O)c4ccc(O)c(CC=C(C)C)c4)c(=O)oc3c2C)OC1(C)C	%	104
CC1COCCN1c1cc(-c2ccnn2C)c2ccnc(-c3ccn[nH]3)c2n1 (stereo not given) + Cc1cccc(N(C)C(=O)C2C(O)CCN2c2nc(C)cc(C(F)(F)F)c2C#N)c1	%	24.8

Task: Give viability, T/C (677734-321-R-J1-PDC complex spheroid viability) of the following compound: CC1COCCN1c1cc(C2(O)CC3CCC(C2)O3)c2cnn(-c3ccn[nH]3)c2n1 (stereo not given) + Nc1ccc(C#CCN(C(=O)Cc2ncc(C(F)(F)F)cc2C(F)(F)F)c2ccc(F)cc2)nn1
Output: 7.94

Task: Try the compound CCc1c2c(nc3ccc(O)cc13)-c1cc3c(c(=O)n1C2)COC(=O)[C@]3(O)CC + Cc1cccc(N(C)C(=O)C2C(O)CCN2c2nc(C)cc(C(F)(F)F)c2C#N)c1
Output: 1.63

====

Quick reference: IC50 of the listed items.
System: 677734-321-R-J1-PDC complex spheroid viability
Assay: Anticancer human tumor 677734-321-R-J1-PDC cell line growth inhibition [POLQ];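 also: spheroids exposed to compounds for one week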
Settings: curve of first compound; second compound 1 µM
Description: Multicellular complex tumor spheroid response to Polymerase (POL) inhibitors (novobiocin, ART-558, RP6685) in combination with a variety of drugs and investigational agents in selected tumor cell lines The POL inhibitors (novobiocin, ART-558, and RP6685) were evaluated both individually and in combination with standard of care and investigational anticancer small molecules within a complex spheroid model of solid tumors. . […]
Write the value in µM as a bare number.

Compound	Tested target	Measured endpoint	Recorded measurement
CCCS(=O)(=O)Nc1ccc(F)c(C(=O)c2c[nH]c3ncc(-c4ccc(Cl)cc4)cc23)c1F + Cc1cccc(N(C)C(=O)C2C(O)CCN2c2nc(C)cc(C(F)(F)F)c2C#N)c1	677734-321-R-J1-PDC complex spheroid viability	IC50	3.12
CCc1cc2c(N3CCc4c(cc(Cn5ccnc5)cc4-c4cn(C)nc4C(F)(F)F)C3=O)ccnc2c(OC)n1 + Nc1ccc(C#CCN(C(=O)Cc2ncc(C(F)(F)F)cc2C(F)(F)F)c2ccc(F)cc2)nn1	677734-321-R-J1-PDC complex spheroid viability	IC50	8.72
CCc1cc2c(N3CCc4c(cc(Cn5ccnc5)cc4-c4cn(C)nc4C(F)(F)F)C3=O)ccnc2c(OC)n1 + Cc1cccc(N(C)C(=O)C2C(O)CCN2c2nc(C)cc(C(F)(F)F)c2C#N)c1	677734-321-R-J1-PDC complex spheroid viability	IC50	7.18
CC1COCCN1c1cc(-c2ccnn2C)c2ccnc(-c3ccn[nH]3)c2n1 (centres undefined) + Nc1ccc(C#CCN(C(=O)Cc2ncc(C(F)(F)F)cc2C(F)(F)F)c2ccc(F)cc2)nn1	677734-321-R-J1-PDC complex spheroid viability	IC50	0.0605
COc1cc(C2c3cc4c(cc3C(OC3OC5COC(C)OC5C(O)C3O)C3COC(=O)C23)OCO4)cc(OC)c1O (centres undefined) + Nc1ccc(C#CCN(C(=O)Cc2ncc(C(F)(F)F)cc2C(F)(F)F)c2ccc(F)cc2)nn1	677734-321-R-J1-PDC complex spheroid viability	IC50	0.375
COc1cccc2c1C(=O)c1c(O)c3c(c(O)c1C2=O)CC(O)(C(=O)CO)CC3OC1CC(N)C(O)C(C)O1 (centres undefined) + Cc1cccc(N(C)C(=O)C2C(O)CCN2c2nc(C)cc(C(F)(F)F)c2C#N)c1	677734-321-R-J1-PDC complex spheroid viability	IC50	0.0836

Task: What value of IC50 has been recorded for this entry: CCc1cc2c(N3CCc4c(cc(Cn5ccnc5)cc4-c4cn(C)nc4C(F)(F)F)C3=O)cc(C)nc2c(OC)n1 + Nc1ccc(C#CCN(C(=O)Cc2ncc(C(F)(F)F)cc2C(F)(F)F)c2ccc(F)cc2)nn1
Output: 5.9

Task: Try the compound O=C(Nc1ccc(O)c(NS(=O)(=O)c2ccc(F)cc2)c1)c1ccc(-c2ccccc2)cc1 + COC1C(OC(N)=O)C(O)C(Oc2ccc3c(O)c(NC(=O)c4ccc(O)c(CC=C(C)C)c4)c(=O)oc3c2C)OC1(C)C
Output: 7.48

Task: Try the compound COc1cccc2c1C(=O)c1c(O)c3c(c(O)c1C2=O)CC(O)(C(=O)CO)CC3OC1CC(N)C(O)C(C)O1 (centres undefined) + Nc1ccc(C#CCN(C(=O)Cc2ncc(C(F)(F)F)cc2C(F)(F)F)c2ccc(F)cc2)nn1
Output: 0.0785

Task: Try the compound COc1cc(C2c3cc4c(cc3C(OC3OC5COC(C)OC5C(O)C3O)C3COC(=O)C23)OCO4)cc(OC)c1O (centres undefined) + Cc1cccc(N(C)C(=O)C2C(O)CCN2c2nc(C)cc(C(F)(F)F)c2C#N)c1
Output: 0.821

Task: Try the compound CC[C@@]1(O)C(=O)OCc2c1cc1n(c2=O)Cc2cc3c(CN(C)C)c(O)ccc3nc2-1 + COC1C(OC(N)=O)C(O)C(Oc2ccc3c(O)c(NC(=O)c4ccc(O)c(CC=C(C)C)c4)c(=O)oc3c2C)OC1(C)C
Output: 0.0236
